Here the recorded Biodistribution, B16F10 tumour is given for each entry.
Test system: B16F10 mouse melanoma
Experiment: Biodistribution of 177Lu-labeled αMSH analogues in mice bearing B16F10 mouse melanoma
Format: in vivo, C57BL/6J mice
Settings: 1 h p.i., C57BL/6J mice, B16F10 melanoma
measuredParameter: Biodistribution, B16F10 tumour (% ID/g)

[[record]]
compound = "CCCC[C@H](NC(=O)CN1CCC(NC(=O)[C@H](CCCCNC(=O)CN2CCN(CC(=O)O)CCN(CC(=O)O)CCN(CC(=O)O)CC2)NC(=O)[C@H](CCC(=O)O)NC(=O)CCCc2ccc(I)cc2)CC1)C(=O)N[C@H]1CC(=O)NCCCC[C@@H](C(N)=O)NC(=O)[C@H](Cc2c[nH]c3ccccc23)NC(=O)[C@H](CCCNC(=N)N)NC(=O)[C@@H](Cc2ccccc2)NC(=O)[C@H](Cc2c[nH]cn2)NC1=O [^177Lu-labeled CCZ01082, metal not drawn]"
measuredtarget = "B16F10 mouse melanoma"
measuredparameter = "Biodistribution, B16F10 tumour"
endpointresult = 13.3

[[record]]
compound = "CCCC[C@H](NC(=O)CN1CCC(NC(=O)[C@H](CCCCNC(=O)CN2CCN(CC(=O)O)CCN(CC(=O)O)CCN(CC(=O)O)CC2)NC(=O)[C@H](CCC(=O)O)NC(=O)CCCc2ccc(I)cc2)CC1)C(=O)N[C@H]1CC(=O)NCCCC[C@@H](C(N)=O)N(C)C(=O)[C@H](Cc2c[nH]c3ccccc23)NC(=O)[C@H](CCCNC(=N)N)N(C)C(=O)[C@@H](Cc2ccccc2)NC(=O)[C@H](Cc2c[nH]cn2)NC1=O [^177Lu-labeled CCZ01118, metal not drawn]"
measuredtarget = "B16F10 mouse melanoma"
measuredparameter = "Biodistribution, B16F10 tumour"
endpointresult = 24.4

[[record]]
compound = "CCCC[C@H](NC(=O)CN1CCC(NC(=O)CN2CCN(CC(=O)O)CCN(CC(=O)O)CCN(CC(=O)O)CC2)CC1)C(=O)N[C@H]1CC(=O)NCCCC[C@@H](C(N)=O)N(C)C(=O)[C@H](Cc2c[nH]c3ccccc23)N(C)C(=O)[C@H](CCCNC(=N)N)N(C)C(=O)[C@@H](Cc2ccccc2)NC(=O)[C@H](Cc2c[nH]cn2)N(C)C1=O [^177Lu-labeled CCZ01099, metal not drawn]"
measuredtarget = "B16F10 mouse melanoma"
measuredparameter = "Biodistribution, B16F10 tumour"
endpointresult = 4.49


====

Assay: Biodistribution of 177Lu-labeled αMSH analogues in mice bearing B16F10 mouse melanoma
Type: in vivo, C57BL/6J mice
Details: mouse, blood, iv, total radioactivity; 24 h p.i., C57BL/6J mice, B16F10 melanoma; read-out: Biodistribution, Blood
measuredParameter: tissue uptake at 24 h (%ID/g)

[[record]]
compound = "CCCC[C@H](NC(=O)CN1CCC(NC(=O)CN2CCN(CC(=O)O)CCN(CC(=O)O)CCN(CC(=O)O)CC2)CC1)C(=O)N[C@H]1CC(=O)NCCCC[C@@H](C(N)=O)N(C)C(=O)[C@H](Cc2c[nH]c3ccccc23)NC(=O)[C@H](CCCNC(=N)N)N(C)C(=O)[C@@H](Cc2ccccc2)NC(=O)[C@H](Cc2c[nH]cn2)NC1=O [^177Lu-labeled CCZ01106, metal not drawn]"
unitsymbol = "%ID/g"
endpointresult = 0.01


====

Experiment: Biodistribution of 177Lu-labeled αMSH analogues in mice bearing B16F10 mouse melanoma
Type: in vivo, C57BL/6J mice
Conditions: mouse, stomach, iv, total radioactivity; 120 h p.i., C57BL/6J mice, B16F10 melanoma; read-out: Biodistribution, Stomach
measuredParameter: tissue uptake at 120 h (%ID/g)

[[record]]
compound = "CCCC[C@H](NC(=O)CN1CCC(NC(=O)[C@H](CCCCNC(=O)CN2CCN(CC(=O)O)CCN(CC(=O)O)CCN(CC(=O)O)CC2)NC(=O)[C@H](CCC(=O)O)NC(=O)CCCc2ccc(I)cc2)CC1)C(=O)N[C@H]1CC(=O)NCCCC[C@@H](C(N)=O)N(C)C(=O)[C@H](Cc2c[nH]c3ccccc23)NC(=O)[C@H](CCCNC(=N)N)N(C)C(=O)[C@@H](Cc2ccccc2)NC(=O)[C@H](Cc2c[nH]cn2)NC1=O [^177Lu-labeled CCZ01118, metal not drawn]"
measuredparameter = "tissue uptake at 120 h"
endpointresult = 0.2


====

Assay: Biodistribution of 177Lu-labeled αMSH analogues in mice bearing B16F10 mouse melanoma
Format: in vivo, C57BL/6J mice
Details: mouse, intestine, iv, total radioactivity; 1 h p.i., C57BL/6J mice, B16F10 melanoma; read-out: Biodistribution, Intestine
We label by threshold. Values of tissue uptake at 1 h strictly beneath 1 %ID/g are Satisfied. Values of 1 %ID/g and up are Not satisfied.

[[record]]
molecule = "CCCC[C@H](NC(=O)CN1CCC(NC(=O)[C@H](CCCCNC(=O)CN2CCN(CC(=O)O)CCN(CC(=O)O)CCN(CC(=O)O)CC2)NC(=O)[C@H](CCC(=O)O)NC(=O)CCCc2ccc(I)cc2)CC1)C(=O)N[C@H]1CC(=O)NCCCC[C@@H](C(N)=O)N(C)C(=O)[C@H](Cc2c[nH]c3ccccc23)N(C)C(=O)[C@H](CCCNC(=N)N)N(C)C(=O)[C@@H](Cc2ccccc2)NC(=O)[C@H](Cc2c[nH]cn2)N(C)C1=O [^177Lu-labeled CCZ01088, metal not drawn]"
discretelabel = "Not satisfied"

[[record]]
molecule = "CCCC[C@H](NC(=O)CN1CCC(NC(=O)CN2CCN(CC(=O)O)CCN(CC(=O)O)CCN(CC(=O)O)CC2)CC1)C(=O)N[C@H]1CC(=O)NCCCC[C@@H](C(N)=O)N(C)C(=O)[C@H](Cc2c[nH]c3ccccc23)N(C)C(=O)[C@H](CCCNC(=N)N)N(C)C(=O)[C@@H](Cc2ccccc2)NC(=O)[C@H](Cc2c[nH]cn2)N(C)C1=O [^177Lu-labeled CCZ01099, metal not drawn]"
discretelabel = "Satisfied"

[[record]]
molecule = "CCCC[C@H](NC(=O)CN1CCC(NC(=O)[C@H](CCCCNC(=O)CN2CCN(CC(=O)O)CCN(CC(=O)O)CCN(CC(=O)O)CC2)NC(=O)[C@H](CCC(=O)O)NC(=O)CCCc2ccc(I)cc2)CC1)C(=O)N[C@H]1CC(=O)NCCCC[C@@H](C(N)=O)NC(=O)[C@H](Cc2c[nH]c3ccccc23)NC(=O)[C@H](CCCNC(=N)N)NC(=O)[C@@H](Cc2ccccc2)NC(=O)[C@H](Cc2c[nH]cn2)NC1=O [^177Lu-labeled CCZ01082, metal not drawn]"
discretelabel = "Not satisfied"

[[record]]
molecule = "CCCC[C@H](NC(=O)CN1CCC(NC(=O)CN2CCN(CC(=O)O)CCN(CC(=O)O)CCN(CC(=O)O)CC2)CC1)C(=O)N[C@H]1CC(=O)NCCCC[C@@H](C(N)=O)N(C)C(=O)[C@H](Cc2c[nH]c3ccccc23)NC(=O)[C@H](CCCNC(=N)N)N(C)C(=O)[C@@H](Cc2ccccc2)NC(=O)[C@H](Cc2c[nH]cn2)NC1=O [^177Lu-labeled CCZ01106, metal not drawn]"
discretelabel = "Satisfied"

[[record]]
molecule = "CCCC[C@H](NC(=O)CN1CCC(NC(=O)CN2CCN(CC(=O)O)CCN(CC(=O)O)CCN(CC(=O)O)CC2)CC1)C(=O)N[C@H]1CC(=O)NCCCC[C@@H](C(N)=O)NC(=O)[C@H](Cc2c[nH]c3ccccc23)NC(=O)[C@H](CCCNC(=N)N)NC(=O)[C@@H](Cc2ccccc2)NC(=O)[C@H](Cc2c[nH]cn2)NC1=O [^177Lu-labeled CCZ01048, metal not drawn, reference compound]"
discretelabel = "Satisfied"

[[record]]
molecule = "CCCC[C@H](NC(=O)CN1CCC(NC(=O)[C@H](CCCCNC(=O)CN2CCN(CC(=O)O)CCN(CC(=O)O)CCN(CC(=O)O)CC2)NC(=O)[C@H](CCC(=O)O)NC(=O)CCCc2ccc(I)cc2)CC1)C(=O)N[C@H]1CC(=O)NCCCC[C@@H](C(N)=O)N(C)C(=O)[C@H](Cc2c[nH]c3ccccc23)NC(=O)[C@H](CCCNC(=N)N)N(C)C(=O)[C@@H](Cc2ccccc2)NC(=O)[C@H](Cc2c[nH]cn2)NC1=O [^177Lu-labeled CCZ01118, metal not drawn]"
discretelabel = "Not satisfied"


====

Experiment: Biodistribution of 177Lu-labeled αMSH analogues in mice bearing B16F10 mouse melanoma
Format: in vivo, C57BL/6J mice
Conditions: mouse, adrenal glands, iv, total radioactivity; 4 h p.i., C57BL/6J mice, B16F10 melanoma; read-out: Biodistribution, Adrenal glands
measuredParameter: tissue uptake at 4 h

[[record]]
compound = "CCCC[C@H](NC(=O)CN1CCC(NC(=O)CN2CCN(CC(=O)O)CCN(CC(=O)O)CCN(CC(=O)O)CC2)CC1)C(=O)N[C@H]1CC(=O)NCCCC[C@@H](C(N)=O)N(C)C(=O)[C@H](Cc2c[nH]c3ccccc23)NC(=O)[C@H](CCCNC(=N)N)N(C)C(=O)[C@@H](Cc2ccccc2)NC(=O)[C@H](Cc2c[nH]cn2)NC1=O [^177Lu-labeled CCZ01106, metal not drawn]"
measuredparameter = "tissue uptake at 4 h"
endpointresult = "0.13 %ID/g"

[[record]]
compound = "CCCC[C@H](NC(=O)CN1CCC(NC(=O)CN2CCN(CC(=O)O)CCN(CC(=O)O)CCN(CC(=O)O)CC2)CC1)C(=O)N[C@H]1CC(=O)NCCCC[C@@H](C(N)=O)N(C)C(=O)[C@H](Cc2c[nH]c3ccccc23)N(C)C(=O)[C@H](CCCNC(=N)N)N(C)C(=O)[C@@H](Cc2ccccc2)NC(=O)[C@H](Cc2c[nH]cn2)N(C)C1=O [^177Lu-labeled CCZ01099, metal not drawn]"
measuredparameter = "tissue uptake at 4 h"
endpointresult = "0.19 %ID/g"

[[record]]
compound = "CCCC[C@H](NC(=O)CN1CCC(NC(=O)[C@H](CCCCNC(=O)CN2CCN(CC(=O)O)CCN(CC(=O)O)CCN(CC(=O)O)CC2)NC(=O)[C@H](CCC(=O)O)NC(=O)CCCc2ccc(I)cc2)CC1)C(=O)N[C@H]1CC(=O)NCCCC[C@@H](C(N)=O)N(C)C(=O)[C@H](Cc2c[nH]c3ccccc23)NC(=O)[C@H](CCCNC(=N)N)N(C)C(=O)[C@@H](Cc2ccccc2)NC(=O)[C@H](Cc2c[nH]cn2)NC1=O [^177Lu-labeled CCZ01118, metal not drawn]"
measuredparameter = "tissue uptake at 4 h"
endpointresult = "0.54 %ID/g"


This collection of values is drawn from patent US11395857B2.
